assay: Metabolic stability in human liver microsomes; type: ADME, Microsome; conditions: read-out: Stability
microsomal CLint values by entry

TEST SMILES	microsomal CLint
CCn1c2ccccc2c2cc(NC(=O)CCc3nc(-c4ccccc4F)no3)ccc21	274 µL/min/mg
O=C(CCc1nc(-c2ccc(F)cc2Cl)no1)Nc1cnc2ncc(Cl)cc2c1	< 100 µL/min/mg
O=C(CCc1nc(-c2ccc(F)cc2Cl)no1)Nc1cnc2ccc(Cl)cc2c1	< 100 µL/min/mg
O=C(CCc1nc(-c2ccc(F)cc2Cl)no1)Nc1nc2ccc(OC(F)(F)F)cc2s1	< 100 µL/min/mg
O=C(CCc1nc(-c2ccc(F)cc2Cl)no1)Nc1nnc(N2CCCCC2)s1	< 100 µL/min/mg
